Kindly supply the reported z-score values for the records listed here.
target: Luciferin 4-monooxygenase (Photinus pyralis); test: inhibition of purified Photinus pyralis luciferase – biochemical, luminescence, purified enzyme, 2006 set, primary screen (AID 1141); details: purified firefly luciferase, SteadyGlo luminescence, 30 min; higher = more signal, called active from +8 up or from −8 down;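 further: cell-free assay with purified firefly luciferase at 100 ng per well in PBS; test concentration not given here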
Calls of active or inactive are those of the source.

Below: 6 compounds and their reported z-score.
compound	result
O=C1N(CCS(=O)(=O)c2ccccc2)Cc2ccccc2C[C@@]12COC(c1ccc(OCCCO)cc1)=N2	-0.966 (inactive)
O=C1C[C@@](C(=O)O)(c2ccc([N+](=O)[O-])cc2)[C@@H](c2ccc(CO)cc2)N1CC12CC3CC(CC(C3)C1)C2	-0.162 (inactive)
C[N+](C)(C)CCCCNC(=O)[C@H]1C[C@H]2C(=O)NCC(=O)N2[C@H]1c1ccc(O)cc1	-0.367 (inactive)
O=C1c2ccccc2[C@](Cc2ccccc2I)(C(=O)NC2CC2)[C@H](c2ccc(CO)cc2)N1Cc1ccccc1Cl	-0.0487 (inactive)
COc1cc(C(O)C2C=CC3C(=O)NC(=O)C3N2Nc2ccc(Cl)cc2Cl)cc(OC)c1OC (stereo unspecified)	-0.0332 (inactive)
O=C1O[C@H](c2ccccc2)[C@H](c2ccccc2)N2[C@H]1[C@@H](C(=O)NC[C@H](O)c1ccccc1)[C@]1(C(=O)Nc3ccccc31)[C@H]2c1ccccc1OCCO	-11 (active)

Quick one: give me z-score for each item below, same order please.
1. COc1cc(NN2C(C(O)c3ccc(I)cc3)C=CC3C(=O)N(C)C(=O)C32)cc(OC)c1OC (stereo unspecified)
2. CN1C(=O)C2C=CC(C(O)c3cccc4ccccc34)N(NC(=O)OC(C)(C)C)C2C1=O (stereo unspecified)
3. CCOC(=O)C1=CC[C@@H](c2cccc(Br)c2)N(S(=O)(=O)c2ccc(C)cc2)[C@H]1c1ccc([N+](=O)[O-])cc1
4. O=C(Nc1cc(Br)ccc1C(=O)NCc1cccc(O)c1)c1ccccc1
5. CC(C)(C)OC(=O)CC[C@@]1(C(=O)N2CCCCC2)N=C(c2ccc(OCCCO)cc2)O[C@@H]1c1ccccc1CN=[N+]=[N-]
6. CCOC(=O)C[C@H]1[C@H](OC(=O)c2ccccc2-c2ccccc2)[C@@H](NC(=O)c2ccccc2)c2cc(OCCCO)ccc2N1C(=O)Cc1ccc(OC)cc1
7. COc1cc(C(O)C2C=CC3C(=O)N(C)C(=O)C3N2NC(=O)OC(C)(C)C)cc(OC)c1OC (stereo unspecified)
8. O=C(N1CCOCC1)[C@@]1(CCS(=O)(=O)c2ccccc2)COC(c2ccc(OCCCO)cc2)=N1

-0.977 (inactive)
0.216 (inactive)
1.96 (inactive)
-0.0565 (inactive)
-0.931 (inactive)
0.897 (inactive)
0.225 (inactive)
0.735 (inactive)

Quick one: give me z-score for each item below, same order please.
1. COc1ccc([Si](C)(C)[C@@H]2[C@@H](CC(=O)N(CCO)Cc3ccccc3)O[C@]3(C(=O)N(C)c4c(Br)cc(C)cc43)[C@H]2C)cc1
2. Cc1ccc(N2C(=O)c3ccccc3[C@](C)(C(=O)NC(C)C)[C@@H]2c2ccc(CO)cc2)nc1

["-0.314 (inactive)", "-1.01 (inactive)"]

----------
biological target: Fibroblast growth factor 10 (Homo sapiens) (UniProt O15520); assay: compounds binding fibroblast growth factor 10 – biochemical, small-molecule microarray, 635 nm fluorescence, primary screen (AID 1102); conditions: FGF10 binding, fluorescence 635 nm, higher = more signal
Sequence (O15520 whole entry, looked up): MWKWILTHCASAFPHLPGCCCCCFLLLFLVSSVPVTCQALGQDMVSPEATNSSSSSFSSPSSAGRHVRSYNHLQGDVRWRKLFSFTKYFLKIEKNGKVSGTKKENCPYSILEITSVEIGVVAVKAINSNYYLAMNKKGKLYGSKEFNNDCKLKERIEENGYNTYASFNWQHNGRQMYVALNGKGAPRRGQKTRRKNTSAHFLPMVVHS
Label Not satisfied if composite z-score falls below 0.7; label Satisfied in every other case.

Does composite z-score meet or surpass 0.7 for C=CC[C@]1(C(=O)NCC(O)CO)N=C(c2ccc(OCCCO)cc2)O[C@H]1c1ccccc1N=[N+]=[N-] (stereo partly drawn) ? Not satisfied

Also COc1ccc([Si](C)(C)[C@@H]2[C@@H](CCO)O[C@]3(C(=O)N(Cc4ccc(N5C(=O)c6ccccc6Oc6ccccc65)cc4)c4ccccc43)[C@H]2C)cc1 , if possible. Not satisfied

Also Cc1ccccc1C(O)C1C=CC2C(=O)N(Cc3ccccc3)C(=O)C2N1n1cnnc1 (stereo not drawn) , if possible. Not satisfied

Also C=C(/C(=C/C[C@@H](OC(C)=O)c1ccccc1OCCO)c1cnc2ccccc2c1)C(C)C , if possible. Satisfied

Also CN(C)CCCCCCNC(=O)[C@@H]1C[C@@H]2C(=O)NCC(=O)N2[C@@H]1c1ccc(O)cc1 , if possible. Satisfied

Also C[N+](C)(C)CCCCCCNC(=O)[C@@H]1C[C@@H]2C(=O)NCC(=O)N2[C@@H]1c1cccc(OCCO)c1 , if possible. Satisfied

Also C=CCNC(=O)[C@H]1[C@@H]2C(=O)O[C@@H](c3ccccc3)[C@@H](c3ccccc3)N2[C@@H](c2ccc(OCCO)cc2)[C@]12C(=O)N(C(=O)OCCOC)c1ccc(C#CC3=CCCCC3)cc12 , if possible. Satisfied

----------
molecular target: Torsin-1A (Homo sapiens); assay: torsin A mutant lysate binding on microarrays – cell lysate, small-molecule microarray, COS7 lysate, 635/667 nm fluorescence, primary screen (AID 1150); details: COS7 hTOR1A mutant lysate, 635 nm fluorescence, higher = more signal;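 further: score pools 667 nm emission and signal to noise measuring lysate protein binding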
Kindly supply the reported composite z-score values for the records listed here.
Answers are plain numbers.

Below: 3 compounds and their reported composite z-score.
compound	composite z-score
CCOC(=O)C1=CC[C@@H](c2ccc(N(CC)CC)cc2)N(S(=O)(=O)c2ccc(C)cc2)[C@H]1c1ccc([N+](=O)[O-])cc1	-0.101
CN1C(=O)C2C=CC(C(O)c3cccc4ccccc34)N(NC(=O)OC(C)(C)C)C2C1=O (centres undefined)	1.41
COc1cccc(C[C@H]2C[C@@H](CO[Si](C(C)C)(C(C)C)C(C)C)N3C(=O)[C@]4(C(C)=O)O[C@]23[C@H]2C(=O)N(C)C(=O)[C@H]24)c1	0.611

Attention now shifts to the item below.
Param item = CCN(CC)c1ccc(N2CC=CC34O[C@@H]5/C=C\CCCOC(=O)C5[C@H]3C(=O)N(CCCCCCO)[C@@H]4C2=O)cc1 (some centres undefined) ; retrieve measured composite z-score. -1.59

----------
tested on: Neuregulin-1 EGF-like domain; experiment: small molecules binding NRG1 EGF domain – biochemical, small-molecule microarray, 635 nm fluorescence, primary screen (AID 1081); details: higher = more signal;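 further: binding of the protein to compounds printed on small-molecule microarray slides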
Label Not met if composite z-score falls below 1; label Met in every other case.

Does composite z-score meet or surpass 1 for COCC(=C=CC[C@@H](O)c1ccccc1OCCO)C[C@@H](O)c1ccccn1 ? Met

Also [N-]=[N+]=NCc1ccccc1[C@H]1OC(c2ccc(OCCCO)cc2)=N[C@@]1(Cc1ccccc1N=[N+]=[N-])C(=O)NCCN1CCOCC1 , if possible. Met

Also COC(=O)C(CC#Cc1ccc2c(c1)[C@]1(C(=O)N2)[C@H](c2ccccc2OCCO)N2[C@H](c3ccccc3)[C@H](c3ccccc3)OC(=O)[C@H]2[C@@H]1C(=O)Nc1nc2ccccc2s1)C(=O)OC , if possible. Met

Also NC(=O)[C@H]1[C@@H]2C(=O)O[C@@H](c3ccccc3)[C@@H](c3ccccc3)N2[C@@H](c2ccc(O)cc2)[C@]12C(=O)Nc1ccc(C#CC3(O)CCCCCC3)cc12 , if possible. Met

Also CO[C@H]1O[C@H](CO)[C@@H](OC(=O)Nc2ccc(C(F)(F)F)cc2)[C@H](OC(=O)Nc2ccccc2)[C@H]1OC(=O)Nc1ccccc1 , if possible. Met

Also CCCC=C(CCC)[C@@H](NS(=O)(=O)CC)c1ccccc1 , if possible. Met

Also O=C(C=C(CC(O)c1cccc(Cl)c1)OCCF)OCCF (centres undefined) , if possible. Not met

Also CC(C)(C)OC(=O)CC[C@@]1(C(=O)N2CCCCC2)N=C(c2ccc(OCCCO)cc2)O[C@@H]1c1ccccc1N=[N+]=[N-] , if possible. Met

Also O=C1O[C@H](c2ccccc2)[C@H](c2ccccc2)N2[C@H]1[C@@H](C(=O)NC[C@H](O)c1ccccc1)[C@]1(C(=O)Nc3ccccc31)[C@H]2c1ccccc1OCCO , if possible. Met

----------
assay: JC-1 mitochondrial signal, unstimulated adipocytes – cell-based, JC-1 fluorescence, 3T3-L1 adipocytes, 24 h, 100 nL compound, profiling panel (AID 1168); settings: JC-1 mitochondrial fluorescence, higher = more signal, called active from +8 up or from −8 down; further: test concentration not given here
observationType: z-score
Give bare numbers.

Below: 3 molecules and their reported z-score.
smiles	z-score
Cc1ccc(S[C@]2(C(=O)NCC(C)C)CC(=O)N(C3CCCCC3)[C@@H]2c2ccc(CO)cc2I)cc1	0.49
COC(=O)[C@]1(Cc2ccccc2CN=[N+]=[N-])N=C(c2ccc(OCCCO)cc2)O[C@@H]1c1ccccc1	0.199
COc1cc2c(cc1OC)CN(C(=O)[C@@H]1[C@H]3C(=O)O[C@H](c4ccccc4)[C@H](c4ccccc4)N3[C@H](c3ccc(OCCO)cc3)[C@@]13C(=O)Nc1ccc(C#CCCO)cc13)CC2	1

Quick one: give me z-score for each item below, same order please.
1. C=CCOC(=O)[C@H]1[C@@H]2C(=O)O[C@@H](c3ccccc3)[C@@H](c3ccccc3)N2[C@@H](c2ccc(OCCOC(=O)[C@H]3C[C@H]4C(=O)N[C@@H](CCCCN(C)C)C(=O)N4[C@H]3c3ccc(O)cc3)cc2)[C@]12C(=O)Nc1ccccc12
2. C=C(/C(=C/C[C@@H](OC(=O)c1ccncc1)c1cccc(OCCO)c1)c1cc(C(=O)OC)ccc1OC)C(C)C
3. COc1ccc([Si](C)(C)[C@@H]2[C@@H](CC(=O)N3Cc4ccccc4C[C@H]3CO)O[C@]3(C(=O)N(Cc4cccc(N5CCCCC5=O)c4)c4ccccc43)[C@H]2C)cc1

1. 0.665
2. 0.544
3. 0.472
